pIC50: −log10 of the molar value.
Let's go through some recorded pIC50 values for Tyrosine-protein kinase Lck (Homo sapiens) together.
recorded_endpoint: pIC50

{"sample_smiles": "Oc1ccc(Br)cc1CN=Nc1ccccc1", "recorded_endpoint": "pIC50", "experimental_value": "< 2.58"}
{"sample_smiles": "c1ccc(N=NCc2ccccn2)cc1", "recorded_endpoint": "pIC50", "experimental_value": "< 2.39"}
{"sample_smiles": "O=[N+]([O-])c1ccc(C/N=N/c2ccccc2)cc1", "recorded_endpoint": "pIC50", "experimental_value": "< 2.48"}
{"sample_smiles": "COc1ccc(CN=Nc2ccc(Br)cc2)cc1O", "recorded_endpoint": "pIC50", "experimental_value": "< 2.60"}
{"sample_smiles": "COc1ccc(N=NCc2cccc(O)c2O)cc1", "recorded_endpoint": "pIC50", "experimental_value": 3.51}
{"sample_smiles": "c1ccc(N=NCc2ccncc2)cc1", "recorded_endpoint": "pIC50", "experimental_value": "< 2.39"}
